// reported PBM binding z-score for each item listed
system: THRa:RXRa (NR concentration 90 nM, RXRa partner concentration 90 nM); assay: PBM binding z-score (relative to random genomic background probes); higher = stronger binding; sequences stand for … in GC…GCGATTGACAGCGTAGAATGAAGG
MEASURED_ATTRIBUTE: PBM binding z-score

{"SEQUENCE_RECORD": "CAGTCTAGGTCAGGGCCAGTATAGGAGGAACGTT", "TARGET_SYSTEM": "THRa:RXRa (NR concentration 90 nM, RXRa partner concentration 90 nM)", "VALUE_MEASURED": 2.42}
{"SEQUENCE_RECORD": "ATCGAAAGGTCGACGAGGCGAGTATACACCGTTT", "TARGET_SYSTEM": "THRa:RXRa (NR concentration 90 nM, RXRa partner concentration 90 nM)", "VALUE_MEASURED": 2.48}
{"SEQUENCE_RECORD": "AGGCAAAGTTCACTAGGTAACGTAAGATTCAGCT", "TARGET_SYSTEM": "THRa:RXRa (NR concentration 90 nM, RXRa partner concentration 90 nM)", "VALUE_MEASURED": 2.15}
{"SEQUENCE_RECORD": "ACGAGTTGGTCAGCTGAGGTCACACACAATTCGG", "TARGET_SYSTEM": "THRa:RXRa (NR concentration 90 nM, RXRa partner concentration 90 nM)", "VALUE_MEASURED": 4.77}
{"SEQUENCE_RECORD": "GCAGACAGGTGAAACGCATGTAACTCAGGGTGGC", "TARGET_SYSTEM": "THRa:RXRa (NR concentration 90 nM, RXRa partner concentration 90 nM)", "VALUE_MEASURED": 0.0674}
{"SEQUENCE_RECORD": "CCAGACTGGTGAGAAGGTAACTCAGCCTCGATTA", "TARGET_SYSTEM": "THRa:RXRa (NR concentration 90 nM, RXRa partner concentration 90 nM)", "VALUE_MEASURED": -0.0936}
{"SEQUENCE_RECORD": "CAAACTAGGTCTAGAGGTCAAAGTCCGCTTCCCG", "TARGET_SYSTEM": "THRa:RXRa (NR concentration 90 nM, RXRa partner concentration 90 nM)", "VALUE_MEASURED": 3.8}
{"SEQUENCE_RECORD": "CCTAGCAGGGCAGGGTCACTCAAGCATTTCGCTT", "TARGET_SYSTEM": "THRa:RXRa (NR concentration 90 nM, RXRa partner concentration 90 nM)", "VALUE_MEASURED": 2.8}
{"SEQUENCE_RECORD": "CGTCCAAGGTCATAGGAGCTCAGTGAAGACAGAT", "TARGET_SYSTEM": "THRa:RXRa (NR concentration 90 nM, RXRa partner concentration 90 nM)", "VALUE_MEASURED": 4.03}
{"SEQUENCE_RECORD": "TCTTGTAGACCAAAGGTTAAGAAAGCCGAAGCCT", "TARGET_SYSTEM": "THRa:RXRa (NR concentration 90 nM, RXRa partner concentration 90 nM)", "VALUE_MEASURED": 1.3}
{"SEQUENCE_RECORD": "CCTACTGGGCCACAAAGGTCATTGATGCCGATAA", "TARGET_SYSTEM": "THRa:RXRa (NR concentration 90 nM, RXRa partner concentration 90 nM)", "VALUE_MEASURED": 3.38}
{"SEQUENCE_RECORD": "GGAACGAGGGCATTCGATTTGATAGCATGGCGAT", "TARGET_SYSTEM": "THRa:RXRa (NR concentration 90 nM, RXRa partner concentration 90 nM)", "VALUE_MEASURED": 1.09}
{"SEQUENCE_RECORD": "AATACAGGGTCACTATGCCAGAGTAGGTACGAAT", "TARGET_SYSTEM": "THRa:RXRa (NR concentration 90 nM, RXRa partner concentration 90 nM)", "VALUE_MEASURED": 3.31}
{"SEQUENCE_RECORD": "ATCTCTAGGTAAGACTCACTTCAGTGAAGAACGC", "TARGET_SYSTEM": "THRa:RXRa (NR concentration 90 nM, RXRa partner concentration 90 nM)", "VALUE_MEASURED": 0.282}
{"SEQUENCE_RECORD": "TCTCGGAGGACACGAAAGTTCAGAGCTCGACATC", "TARGET_SYSTEM": "THRa:RXRa (NR concentration 90 nM, RXRa partner concentration 90 nM)", "VALUE_MEASURED": 2.22}
{"SEQUENCE_RECORD": "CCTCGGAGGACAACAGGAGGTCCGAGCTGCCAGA", "TARGET_SYSTEM": "THRa:RXRa (NR concentration 90 nM, RXRa partner concentration 90 nM)", "VALUE_MEASURED": 0.4}
{"SEQUENCE_RECORD": "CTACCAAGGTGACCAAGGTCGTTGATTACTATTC", "TARGET_SYSTEM": "THRa:RXRa (NR concentration 90 nM, RXRa partner concentration 90 nM)", "VALUE_MEASURED": 2.92}
{"SEQUENCE_RECORD": "GCTTGAAGATCAAGGTTAAGAAAGACTAAGCTAA", "TARGET_SYSTEM": "THRa:RXRa (NR concentration 90 nM, RXRa partner concentration 90 nM)", "VALUE_MEASURED": 1.02}
{"SEQUENCE_RECORD": "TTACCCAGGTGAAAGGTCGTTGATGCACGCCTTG", "TARGET_SYSTEM": "THRa:RXRa (NR concentration 90 nM, RXRa partner concentration 90 nM)", "VALUE_MEASURED": 3.2}
{"SEQUENCE_RECORD": "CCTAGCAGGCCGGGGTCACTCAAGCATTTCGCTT", "TARGET_SYSTEM": "THRa:RXRa (NR concentration 90 nM, RXRa partner concentration 90 nM)", "VALUE_MEASURED": 3.89}
{"SEQUENCE_RECORD": "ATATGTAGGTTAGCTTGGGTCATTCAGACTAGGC", "TARGET_SYSTEM": "THRa:RXRa (NR concentration 90 nM, RXRa partner concentration 90 nM)", "VALUE_MEASURED": 4.29}
{"SEQUENCE_RECORD": "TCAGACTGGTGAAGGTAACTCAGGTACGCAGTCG", "TARGET_SYSTEM": "THRa:RXRa (NR concentration 90 nM, RXRa partner concentration 90 nM)", "VALUE_MEASURED": 0.985}
{"SEQUENCE_RECORD": "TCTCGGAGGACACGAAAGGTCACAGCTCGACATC", "TARGET_SYSTEM": "THRa:RXRa (NR concentration 90 nM, RXRa partner concentration 90 nM)", "VALUE_MEASURED": 4.29}
{"SEQUENCE_RECORD": "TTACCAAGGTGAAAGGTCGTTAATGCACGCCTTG", "TARGET_SYSTEM": "THRa:RXRa (NR concentration 90 nM, RXRa partner concentration 90 nM)", "VALUE_MEASURED": 3.23}
{"SEQUENCE_RECORD": "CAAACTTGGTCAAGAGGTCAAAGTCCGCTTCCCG", "TARGET_SYSTEM": "THRa:RXRa (NR concentration 90 nM, RXRa partner concentration 90 nM)", "VALUE_MEASURED": 3.78}
{"SEQUENCE_RECORD": "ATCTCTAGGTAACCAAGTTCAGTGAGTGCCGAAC", "TARGET_SYSTEM": "THRa:RXRa (NR concentration 90 nM, RXRa partner concentration 90 nM)", "VALUE_MEASURED": 1.52}
